Exercise: for every item that follows, state its recorded CTG-3D luminescence at 96 h.
# Tested on: HCI-011.E2 (organoid from an ER-positive breast cancer xenograft)
# Experiment: CTG-3D luminescence at 96 h relative to day-0 seeding control (ratio to day 0); higher = more growth / less cytotoxicity; PDxO 3D drug screen (set 2), 96 h, CTG-3D normalised to day-0 seeding control.
# Recorded Conditions: 0.1 µM
Reply with the value as a number alone.

Q) Entry under review: Nc1cc(C(F)(F)F)c(-c2cc(N3CCOCC3)nc(N3CCOCC3)n2)cn1 . Reported CTG-3D luminescence at 96 h?
A) 1.38

Q) Record request: CTG-3D luminescence at 96 h value, item CO[C@H]1C[C@@H]2CC[C@@H](C)[C@@](O)(O2)C(=O)C(=O)N2CCCC[C@H]2C(=O)O[C@H]([C@H](C)C[C@@H]2CC[C@@H](O)[C@H](OC)C2)CC(=O)[C@H](C)/C=C(\C)[C@@H](O)[C@@H](OC)C(=O)[C@H](C)C[C@H](C)/C=C/C=C/C=C/1C
A) 0.909

Q) What value of CTG-3D luminescence at 96 h has been reported for the following compound? CC(C)n1nc(-c2ccc3oc(N)nc3c2)c2c(N)ncnc21
A) 0.413

Q) Name the reported CTG-3D luminescence at 96 h value associated with the compound O=C(c1cc(Cc2n[nH]c(=O)c3ccccc23)ccc1F)N1CCN(C(=O)C2CC2)CC1
A) 1.95
